System: NCI-H522 lung
Assay: NCI-60 one-dose screen, 48 h (100 = growth as untreated, 0 = no growth, -100 = all killed)
Details: 10 µM unless noted
Compounds without any hit were thinned out: in the full panel of roughly 83,000, 20% have a hit.
Property measured: growth (%)
Please reply with the bare figure in % and do not write the unit itself.

1) CC(C)(C)OC(=O)N1CC(Cn2cc(C(F)(F)F)c3c(Cl)ncnc32)C1: 39.9
2) COc1ccc2c(c1)nnn1c3ncccc3c(N=O)c21: -85.7
3) Cc1cn([C@]2(CF)O[C@H](CO)C2C)c(=O)[nH]c1=O (stereo partly specified): 87.1
4) COc1ccc(/C=C2\CS(=O)(=O)C/C(=C\c3ccc(OC)cc3)C2=O)cc1: -73.6
5) O[C@@H]1CCO[C@H](c2ccc3ccccc3c2)C1: 87.9

# lookup: growth of `Nc1nc(=S)ss1`
94.2
